Measured pKi of individual entries
Molecular target: GABA A receptor alpha-1/beta-2/gamma-2 (Homo sapiens)
Test: Displacement of [3H]EBOB from human recombinant GABA alpha-1-beta-2-gamma-2 receptor expressed in HEK293 cells
pKi: −log10 of the molar value.
measure: pKi

>  <smiles input>
Nc1c(-c2ccccc2)nnn1-c1c(Cl)cc(C(F)(F)F)cc1Cl

>  <reported>
5.94

$$$$
>  <smiles input>
CCCc1nnn(-c2c(Cl)cc(C(F)(F)F)cc2Cl)c1C

>  <reported>
6.49

$$$$
>  <smiles input>
FC(F)(F)c1cc(Cl)c(-n2cc(-c3ccccc3)nn2)c(Cl)c1

>  <reported>
< 5.04

$$$$
>  <smiles input>
CCCCCCc1cnnn1-c1c(Cl)cc(C(F)(F)F)cc1Cl

>  <reported>
< 5.04

$$$$
>  <smiles input>
CCCCc1cn(-c2c(Cl)cc(Cl)cc2Cl)nn1

>  <reported>
< 5.04

$$$$
>  <smiles input>
CCCCc1cnnn1-c1ccc(C(F)(F)F)cc1

>  <reported>
< 5.04

$$$$

* * *

Target: GABA A receptor alpha-1/beta-2/gamma-2 (Homo sapiens)
Assay: Displacement of [3H]EBOB from human recombinant GABA alpha-1-beta-2-gamma-2 receptor expressed in HEK293 cells
pKi: −log10 of the molar value.

>  <smiles input>
CCCCc1cn(-c2c(Cl)cc(Br)cc2Cl)nn1

>  <system under test>
GABA A receptor alpha-1/beta-2/gamma-2 (Homo sapiens)

>  <bound operator>
<

>  <pKi>
5.04

$$$$
>  <smiles input>
CCCc1nnn(-c2c(Cl)cc(C(F)(F)F)cc2Cl)c1CCC

>  <system under test>
GABA A receptor alpha-1/beta-2/gamma-2 (Homo sapiens)

>  <bound operator>
<

>  <pKi>
5.04

$$$$
>  <smiles input>
CCc1nnn(-c2c(Cl)cc(C(F)(F)F)cc2Cl)c1C

>  <system under test>
GABA A receptor alpha-1/beta-2/gamma-2 (Homo sapiens)

>  <bound operator>
=

>  <pKi>
5.97

$$$$
>  <smiles input>
CCCc1c(CO)nnn1-c1c(Cl)cc(C(F)(F)F)cc1Cl

>  <system under test>
GABA A receptor alpha-1/beta-2/gamma-2 (Homo sapiens)

>  <bound operator>
<

>  <pKi>
5.04

$$$$
>  <smiles input>
CCCCc1cn(-c2c(Cl)cc(C(F)(F)F)cc2Cl)nn1

>  <system under test>
GABA A receptor alpha-1/beta-2/gamma-2 (Homo sapiens)

>  <bound operator>
=

>  <pKi>
6.00

$$$$
>  <smiles input>
CCCCCc1cn(-c2c(Cl)cc(C(F)(F)F)cc2Cl)nn1

>  <system under test>
GABA A receptor alpha-1/beta-2/gamma-2 (Homo sapiens)

>  <bound operator>
=

>  <pKi>
5.86

$$$$

* * *

Biological target: Gamma-aminobutyric acid receptor subunit beta-3 (Homo sapiens, UniProt P28472)
Sequence (P28472 whole entry): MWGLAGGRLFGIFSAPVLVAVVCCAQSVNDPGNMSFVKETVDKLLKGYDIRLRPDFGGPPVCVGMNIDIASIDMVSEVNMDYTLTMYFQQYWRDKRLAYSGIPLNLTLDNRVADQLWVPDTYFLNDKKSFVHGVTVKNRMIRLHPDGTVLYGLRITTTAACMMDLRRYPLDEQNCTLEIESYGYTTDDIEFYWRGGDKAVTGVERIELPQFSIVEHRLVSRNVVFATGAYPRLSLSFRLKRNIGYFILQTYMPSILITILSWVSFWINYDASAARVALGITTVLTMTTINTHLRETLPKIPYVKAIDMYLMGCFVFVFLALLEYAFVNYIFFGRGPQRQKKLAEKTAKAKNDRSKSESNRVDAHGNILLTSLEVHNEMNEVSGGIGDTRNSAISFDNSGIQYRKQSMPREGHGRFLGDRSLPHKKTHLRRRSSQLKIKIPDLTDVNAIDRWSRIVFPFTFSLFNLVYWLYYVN
Test: Displacement of [3H]EBOB from human recombinant GABAbeta3 receptor expressed in HEK293 cells
pKi: −log10 of the molar value.

>  <smiles input>
CCCc1c(CCl)nnn1-c1c(Cl)cc(C(F)(F)F)cc1Cl

>  <pKi>
7.18

$$$$
>  <smiles input>
CCc1nnn(-c2c(Cl)cc(C(F)(F)F)cc2Cl)c1CC

>  <pKi>
8.37

$$$$
>  <smiles input>
CCc1c(C)nnn1-c1c(Cl)cc(C(F)(F)F)cc1Cl

>  <pKi>
7.15

$$$$
>  <smiles input>
CCCc1nnn(-c2c(Cl)cc(C(F)(F)F)cc2Cl)c1CO

>  <pKi>
8.60

$$$$
>  <smiles input>
CCc1nnn(-c2c(Cl)cc(C(F)(F)F)cc2Cl)c1C

>  <pKi>
8.15

$$$$
>  <smiles input>
CCCc1nnn(-c2c(Cl)cc(C(F)(F)F)cc2Cl)c1CCC

>  <pKi>
6.89

$$$$
>  <smiles input>
CCCc1nnn(-c2c(Cl)cc(C(F)(F)F)cc2Cl)c1CCl

>  <pKi>
9.18

$$$$
>  <smiles input>
CCCc1nnn(-c2c(Cl)cc(C(F)(F)F)cc2Cl)c1C

>  <pKi>
8.71

$$$$
>  <smiles input>
CCCc1c(CC)nnn1-c1c(Cl)cc(C(F)(F)F)cc1Cl

>  <pKi>
7.33

$$$$
>  <smiles input>
CCCc1nnn(-c2c(Br)cc(C(F)(F)F)cc2Br)c1C

>  <pKi>
7.87

$$$$
>  <smiles input>
CCCc1c(C)nnn1-c1c(Cl)cc(C(F)(F)F)cc1Cl

>  <pKi>
6.27

$$$$
>  <smiles input>
CCCc1c(CO)nnn1-c1c(Cl)cc(C(F)(F)F)cc1Cl

>  <pKi>
5.46

$$$$
>  <smiles input>
CCCc1nnn(-c2c(Cl)cc(C(F)(F)F)cc2Cl)c1CC

>  <pKi>
8.09

$$$$

* * *

Target: GABA A receptor alpha-1/beta-2/gamma-2 (Homo sapiens)
Test: Displacement of [3H]EBOB from human recombinant GABA alpha-1-beta-2-gamma-2 receptor expressed in HEK293 cells
measure: Ki (nM)

>  <smiles input>
CCCc1nnn(-c2c(Br)cc(C(F)(F)F)cc2Br)c1C

>  <bound operator>
>

>  <reported>
9150

$$$$
>  <smiles input>
CCCc1nnn(-c2c(Cl)cc(C(F)(F)F)cc2Cl)c1CO

>  <bound operator>
=

>  <reported>
387

$$$$
>  <smiles input>
CCCCc1cnnn1-c1ccc(Br)cc1

>  <bound operator>
>

>  <reported>
9150

$$$$
>  <smiles input>
CCCc1c(C)nnn1-c1c(Cl)cc(C(F)(F)F)cc1Cl

>  <bound operator>
>

>  <reported>
9150

$$$$
>  <smiles input>
CCCCCCc1cn(-c2c(Cl)cc(C(F)(F)F)cc2Cl)nn1

>  <bound operator>
=

>  <reported>
1980

$$$$
>  <smiles input>
CC(C)(C)c1cn(-c2c(Cl)cc(C(F)(F)F)cc2Cl)nn1

>  <bound operator>
=

>  <reported>
390

$$$$
>  <smiles input>
CCCc1cn(-c2c(Cl)cc(C(F)(F)F)cc2Cl)nn1

>  <bound operator>
=

>  <reported>
470

$$$$
>  <smiles input>
FC(F)(F)c1cc(Cl)c(-n2cc(CCCCl)nn2)c(Cl)c1

>  <bound operator>
=

>  <reported>
616

$$$$
>  <smiles input>
CCCCCc1cnnn1-c1c(Cl)cc(C(F)(F)F)cc1Cl

>  <bound operator>
>

>  <reported>
9150

$$$$
>  <smiles input>
C#Cc1ccc(-n2nncc2CCCC)cc1

>  <bound operator>
>

>  <reported>
9150

$$$$
>  <smiles input>
CCCCc1cnnn1-c1c(Cl)cc(Cl)cc1Cl

>  <bound operator>
>

>  <reported>
9150

$$$$

* * *

Measured Ratio Ki of individual entries
Species: Homo sapiens
Assay: Selectivity for human GABA-beta-3 receptor over human GABA alpha-1-beta-2-gamma-2 receptor
measure: Ratio Ki

>  <smiles input>
CCCc1c(CCl)nnn1-c1c(Cl)cc(C(F)(F)F)cc1Cl

>  <reported>
> 137

$$$$
>  <smiles input>
CCCCc1cnnn1-c1ccc(C(F)(F)F)cc1

>  <reported>
> 1.73

$$$$
>  <smiles input>
CCCCc1cnnn1-c1c(Cl)cc(Br)cc1Cl

>  <reported>
> 11.7

$$$$
>  <smiles input>
FC(F)(F)c1cc(Cl)c(-n2nncc2-c2ccccc2)c(Cl)c1

>  <reported>
> 19.3

$$$$
>  <smiles input>
CCCCCCc1cnnn1-c1c(Cl)cc(C(F)(F)F)cc1Cl

>  <reported>
> 10.6

$$$$
>  <smiles input>
CCCc1nnn(-c2c(Cl)cc(C(F)(F)F)cc2Cl)c1CCC

>  <reported>
> 71.5

$$$$
>  <smiles input>
CCCCc1cn(-c2c(Cl)cc(Cl)cc2Cl)nn1

>  <reported>
> 111

$$$$
>  <smiles input>
CCCCCCc1cn(-c2c(Cl)cc(C(F)(F)F)cc2Cl)nn1

>  <reported>
5.05

$$$$
>  <smiles input>
FC(F)(F)c1cc(Cl)c(-n2cc(-c3ccccc3)nn2)c(Cl)c1

>  <reported>
> 71.5

$$$$
>  <smiles input>
CCCc1c(C)nnn1-c1c(Cl)cc(C(F)(F)F)cc1Cl

>  <reported>
> 17

$$$$
>  <smiles input>
CCCCCc1cnnn1-c1c(Cl)cc(C(F)(F)F)cc1Cl

>  <reported>
> 6.58

$$$$
>  <smiles input>
CCCc1nnn(-c2c(Cl)cc(C(F)(F)F)cc2Cl)c1CO

>  <reported>
153

$$$$
>  <smiles input>
CCCCc1cn(-c2c(Cl)cc(C(F)(F)F)cc2Cl)nn1

>  <reported>
362

$$$$
>  <smiles input>
CCCc1nnn(-c2c(Cl)cc(C(F)(F)F)cc2Cl)c1C

>  <reported>
166

$$$$
>  <smiles input>
CCc1nnn(-c2c(Cl)cc(C(F)(F)F)cc2Cl)c1C

>  <reported>
150

$$$$
>  <smiles input>
CCCc1cnnn1-c1c(Cl)cc(C(F)(F)F)cc1Cl

>  <reported>
> 12.1

$$$$
>  <smiles input>
FC(F)(F)c1cc(Cl)c(-n2cc(C3CCCCC3)nn2)c(Cl)c1

>  <reported>
127

$$$$
>  <smiles input>
CCCCc1cnnn1-c1ccc(Br)cc1

>  <reported>
> 3.35

$$$$
>  <smiles input>
CCCc1c(CO)nnn1-c1c(Cl)cc(C(F)(F)F)cc1Cl

>  <reported>
> 2.65

$$$$
>  <smiles input>
Nc1c(-c2ccccc2)nnn1-c1c(Cl)cc(C(F)(F)F)cc1Cl

>  <reported>
57.1

$$$$
>  <smiles input>
CCCCc1cn(-c2c(Cl)cccc2Cl)nn1

>  <reported>
> 2.6

$$$$
>  <smiles input>
CCCCc1cnnn1-c1c(Cl)cccc1Cl

>  <reported>
> 4.46

$$$$
>  <smiles input>
CCCCc1cn(-c2ccc(Br)cc2)nn1

>  <reported>
> 2.87

$$$$
>  <smiles input>
CCCCCc1cn(-c2c(Cl)cc(C(F)(F)F)cc2Cl)nn1

>  <reported>
50

$$$$
>  <smiles input>
CC(C)(C)c1cn(-c2c(Cl)cc(C(F)(F)F)cc2Cl)nn1

>  <reported>
470

$$$$
>  <smiles input>
CCCc1c(CC)nnn1-c1c(Cl)cc(C(F)(F)F)cc1Cl

>  <reported>
> 194

$$$$
>  <smiles input>
CCCc1nnn(-c2c(Cl)cc(C(F)(F)F)cc2Cl)c1CC

>  <reported>
> 1130

$$$$
>  <smiles input>
CCCc1nnn(-c2c(Br)cc(C(F)(F)F)cc2Br)c1C

>  <reported>
> 673

$$$$
>  <smiles input>
CCCCc1cnnn1-c1c(Cl)cc(Cl)cc1Cl

>  <reported>
> 2.24

$$$$
>  <smiles input>
C#Cc1cc(Cl)c(-n2cc(CCCC)nn2)c(Cl)c1

>  <reported>
> 264

$$$$
>  <smiles input>
CCCCc1cn(-c2c(Cl)cc(Br)cc2Cl)nn1

>  <reported>
> 293

$$$$
>  <smiles input>
CCCc1cn(-c2c(Cl)cc(C(F)(F)F)cc2Cl)nn1

>  <reported>
220

$$$$
>  <smiles input>
C#Cc1ccc(-n2nncc2CCCC)cc1

>  <reported>
> 1.21

$$$$
>  <smiles input>
FC(F)(F)c1cc(Cl)c(-n2cc(CCCCl)nn2)c(Cl)c1

>  <reported>
378

$$$$
>  <smiles input>
CCCc1nnn(-c2c(Cl)cc(C(F)(F)F)cc2Cl)c1CCl

>  <reported>
403

$$$$

Cited source for all entries: ChEMBL document CHEMBL1149606
